Listed sequences paired with reported binding signal
- System under test: GST-Aq-NF-kB (Amphimedon queenslandica, UniProt A9Y5G7 2-389)
- Sequence: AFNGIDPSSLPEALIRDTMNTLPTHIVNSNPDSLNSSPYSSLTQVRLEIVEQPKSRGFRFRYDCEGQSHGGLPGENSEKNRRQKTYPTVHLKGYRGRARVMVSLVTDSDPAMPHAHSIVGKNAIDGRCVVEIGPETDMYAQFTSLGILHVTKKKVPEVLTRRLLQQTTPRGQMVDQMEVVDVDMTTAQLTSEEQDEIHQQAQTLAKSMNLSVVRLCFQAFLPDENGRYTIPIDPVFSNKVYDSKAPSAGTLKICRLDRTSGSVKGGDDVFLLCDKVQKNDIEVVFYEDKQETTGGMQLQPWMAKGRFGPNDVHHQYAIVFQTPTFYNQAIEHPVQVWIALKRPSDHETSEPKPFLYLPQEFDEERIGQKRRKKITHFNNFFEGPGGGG
- Procedure details: protein-binding microarray (PBM); PBM: ~300 nM protein, 6 mM HEPES pH 7.8, 80 mM KCl, 0.5 mM EDTA, 0.5 mM EGTA, 6% glycerol, 35 ng/ul poly-dIdC, 1% milk, 1 h, room temperature; Ap Aiptasia and Nv Nematostella (sea anemones) / Co Capsaspora / Aq Amphimedon (sponge) / Dm Drosophila / Hu human; RHD is the Rel homology domain; high values mean tight binding
- Condition label: dsDNA, one strand shown
Report as: number unit

>>> measurement("CCGATTAACATCAGGGGAGTATATGATGTTAATCGGGTCTTGATTCGCTTGACGCTGCTG")
"3.95 z-score"
>>> measurement("CCGATTAACATCACGGTACTTCCTGATGTTAATCGGGTCTTGATTCGCTTGACGCTGCTG")
"2.93 z-score"
>>> measurement("CCGATTAACATCACGTAAAACCCTGATGTTAATCGGGTCTTGATTCGCTTGACGCTGCTG")
"2.12 z-score"
>>> measurement("CCGATTAACATCAGGGGGAAACATGATGTTAATCGGGTCTTGATTCGCTTGACGCTGCTG")
"5.49 z-score"
>>> measurement("CCGATTAACATCAGGGAAATCAATGATGTTAATCGGGTCTTGATTCGCTTGACGCTGCTG")
"2.67 z-score"

QUERY: Bench note: what binding signal did `CCGATTAACATCACCCCTCCCCCTGATGTTAATCGGGTCTTGATTCGCTTGACGCTGCTG` show?
RESULT: 4.12 z-score

QUERY: Bench note: what binding signal did `CCGATTAACATCATGCGGGAAAATGATGTTAATCGGGTCTTGATTCGCTTGACGCTGCTG` show?
RESULT: 2.76 z-score

QUERY: Bench note: what binding signal did `CCGATTAACATCAGGGATCTACCTGATGTTAATCGGGTCTTGATTCGCTTGACGCTGCTG` show?
RESULT: 4.74 z-score

QUERY: Bench note: what binding signal did `CCGATTAACATCAGGGGTTACACTGATGTTAATCGGGTCTTGATTCGCTTGACGCTGCTG` show?
RESULT: 2.36 z-score

Where these numbers come from: paper PMC5700166
